The reported measurements were obtained from patent US20240208928A1.

Target: NLRP3 (Homo sapiens, UniProt Q96P20)
Sequence (Q96P20 whole entry): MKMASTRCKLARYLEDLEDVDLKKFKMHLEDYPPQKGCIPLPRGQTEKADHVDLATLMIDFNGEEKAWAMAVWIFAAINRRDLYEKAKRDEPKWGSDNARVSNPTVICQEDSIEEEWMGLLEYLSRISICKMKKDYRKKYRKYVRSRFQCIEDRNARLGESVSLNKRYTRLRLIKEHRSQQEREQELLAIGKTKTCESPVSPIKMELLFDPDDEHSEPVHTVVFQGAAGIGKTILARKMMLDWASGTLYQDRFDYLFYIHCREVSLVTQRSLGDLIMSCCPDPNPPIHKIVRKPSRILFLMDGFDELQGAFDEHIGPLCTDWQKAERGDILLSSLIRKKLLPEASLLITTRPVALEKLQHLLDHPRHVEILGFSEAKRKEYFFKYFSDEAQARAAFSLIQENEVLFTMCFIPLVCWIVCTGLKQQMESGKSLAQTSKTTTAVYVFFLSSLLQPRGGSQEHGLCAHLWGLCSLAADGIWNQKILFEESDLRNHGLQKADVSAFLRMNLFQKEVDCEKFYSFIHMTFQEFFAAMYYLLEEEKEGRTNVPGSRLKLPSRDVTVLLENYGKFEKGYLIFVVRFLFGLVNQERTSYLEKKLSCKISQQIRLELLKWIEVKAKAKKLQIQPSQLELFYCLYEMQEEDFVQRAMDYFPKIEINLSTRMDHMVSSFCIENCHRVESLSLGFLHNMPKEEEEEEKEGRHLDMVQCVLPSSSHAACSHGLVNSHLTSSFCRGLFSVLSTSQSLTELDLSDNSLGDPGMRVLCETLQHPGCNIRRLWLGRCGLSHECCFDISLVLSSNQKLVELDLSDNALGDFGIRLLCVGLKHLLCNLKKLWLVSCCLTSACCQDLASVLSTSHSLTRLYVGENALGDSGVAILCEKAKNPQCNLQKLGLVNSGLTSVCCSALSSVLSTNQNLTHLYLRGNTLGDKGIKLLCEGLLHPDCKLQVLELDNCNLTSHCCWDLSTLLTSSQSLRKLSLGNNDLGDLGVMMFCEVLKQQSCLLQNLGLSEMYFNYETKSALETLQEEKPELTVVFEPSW
Assay: THP-1 cells pyroptosis assay
Type: cell-based
Set-up: Seed THP-1 cells (25,000 cells/well) containing 1.0 μg/ml LPS; host or cells: THP-1 cells, LPS-primed, nigericin-stimulated
Details: 1.0 μg/ml LPS, nigericin 5 μM, resazurin readout
quantity kind: IC50 (nM)
One number for each entry, in nM.

# return IC50 for each item in the list
1. CCN1C[C@@H](C)C[C@@H](Nc2nnc(-c3ccc(C(F)(F)F)cc3O)n(C)c2=O)C1 [Example 14]
2. Cn1c(-c2ccc(C(F)(F)F)cc2O)nnc(N[C@@H]2CCCNC2)c1=O [Example 3]

Response:
1. 765
2. 170

Recorded IC50 (compound CCN1CCC[C@@H](Nc2nnc(-c3c(C)cc(C(F)(F)F)cc3O)n(C)c2=O)C1 (single isomer, unassigned) [Example 29] ): 7.8
